This collection of values is drawn from ChEMBL document CHEMBL1140587.

I'd be grateful if you could share measured Kapp for these entries.
target: Coagulation factor X (Homo sapiens); experiment: Binding affinity to human factor10a

molecule CN1CCC(C2CCN(C(=O)[C@H](NC(=O)c3ccc4cc[nH]c4c3)c3ccccc3)CC2)CC1 , Kapp observed: 450 10^6L/mol

molecule O=C(N[C@@H](C(=O)N1CCC(CN2CCCCC2)CC1)c1ccccc1)c1ccc2cc[nH]c2c1 , Kapp observed: 48 10^6L/mol

molecule CC(C)NCC1CCN(C(=O)[C@H](NC(=O)c2ccc3cc[nH]c3c2)c2ccccc2)CC1 , Kapp observed: 7.8 10^6L/mol

molecule CN1CCN(CC2CCN(C(=O)[C@H](NC(=O)c3ccc4cc[nH]c4c3)c3ccccc3)CC2)CC1 , Kapp observed: 1.5 10^6L/mol

molecule O=C(N[C@@H](C(=O)N1CCC(CN2CCC(O)CC2)CC1)c1ccccc1)c1ccc2cc[nH]c2c1 , Kapp observed: 10 10^6L/mol

molecule O=C(N[C@@H](C(=O)N1CCC(CN2CCCCC2)CC1)c1ccccc1)c1ccc2c(Cl)c[nH]c2c1 , Kapp observed: 710 10^6L/mol

molecule CCN(CC)CC1CCN(C(=O)[C@H](NC(=O)c2ccc3cc[nH]c3c2)c2ccccc2)CC1 , Kapp observed: 28 10^6L/mol

molecule O=C(N[C@@H](C(=O)N1CCC(CN2CCC(O)C2)CC1)c1ccccc1)c1ccc2cc[nH]c2c1 (stereo not given in full) , Kapp observed: 5 10^6L/mol

molecule O=C(N[C@@H](C(=O)N1CCC(CN2CCC(CO)CC2)CC1)c1ccccc1)c1ccc2cc[nH]c2c1 , Kapp observed: 0.7 10^6L/mol

molecule O=C(N[C@@H](C(=O)N1CCC(CN2CCC[C@H]2CO)CC1)c1ccccc1)c1ccc2cc[nH]c2c1 , Kapp observed: 9.7 10^6L/mol

molecule Cc1c[nH]c2cc(C(=O)N[C@@H](C(=O)N3CCC(CN4CCCCC4)CC3)c3ccccc3)ccc12 , Kapp observed: 110 10^6L/mol

molecule O=C(N[C@@H](C(=O)N1CCC(CN2CCCC2)CC1)c1ccccc1)c1ccc2cc[nH]c2c1 , Kapp observed: 24 10^6L/mol

molecule O=C(N[C@@H](C(=O)N1CCC(CN2CC[C@@H](O)C2)CC1)c1ccccc1)c1ccc2cc[nH]c2c1 , Kapp observed: 4 10^6L/mol

molecule O=C(N[C@@H](C(=O)N1CCC(CN2CCNCC2)CC1)c1ccccc1)c1ccc2cc[nH]c2c1 , Kapp observed: 3.9 10^6L/mol

molecule O=C(N[C@@H](C(=O)N1CCC(CN2CCC[C@@H]2CO)CC1)c1ccccc1)c1ccc2cc[nH]c2c1 , Kapp observed: 18 10^6L/mol

###

I'd be grateful if you could share measured Cmax for these entries.
assay: Cmax in rat plasma at 20 mg/kg, po; assay type: ADME, organism-based; design: dose 20 mg/kg, route oral
Answer with a number only, understood to be in µM.

compound O=C(N[C@@H](C(=O)N1CCC(CN2CCCCC2)CC1)c1ccccc1)c1ccc2c(Cl)c[nH]c2c1 , Cmax observed: 1.7

compound O=C(N[C@@H](C(=O)N1CCC(CN2CCCCC2)CC1)c1ccccc1)c1ccc2cc[nH]c2c1 , Cmax observed: 4.7

compound Cc1c[nH]c2cc(C(=O)N[C@@H](C(=O)N3CCC(CN4CCCCC4)CC3)c3ccccc3)ccc12 , Cmax observed: 2.4

compound CN1CCC(C2CCN(C(=O)[C@H](NC(=O)c3ccc4cc[nH]c4c3)c3ccccc3)CC2)CC1 , Cmax observed: 4
